Assay: Ocular pharmacokinetics of Comp-02 after intravitreal injection in rabbit
Type: in vivo, pigmented HY79b rabbits
Conditions: male, pigmented HY79b, other: intravitreal, 50 µg/eye, vitreous, intravitreal, calculated from the Tmax value
assay endpoint: half-life (h)
Give bare numbers, in h.

[ask] Which half-life value belongs to CNC(=O)C(=O)NCCCC/C=C\CCCCCCCOCC(=O)O [Comp-02] ?
[reply] 4.6

----------
Experiment: Ocular pharmacokinetics of Comp-02 after intravitreal injection in rabbit
Format: in vivo, pigmented HY79b rabbits
Details: male, pigmented HY79b, other: intravitreal, 50 µg/eye, plasma, intravitreal, calculated from the Tmax value
assay endpoint: half-life (h)
Give bare numbers, in h.

[ask] What half-life value was documented for this compound, CNC(=O)C(=O)NCCCC/C=C\CCCCCCCOCC(=O)O ?
[reply] 4.2
